Source of measurements: paper PMC6508677

Biological target: PfHT (Plasmodium falciparum)
Sequence (Q7KWJ5 whole entry): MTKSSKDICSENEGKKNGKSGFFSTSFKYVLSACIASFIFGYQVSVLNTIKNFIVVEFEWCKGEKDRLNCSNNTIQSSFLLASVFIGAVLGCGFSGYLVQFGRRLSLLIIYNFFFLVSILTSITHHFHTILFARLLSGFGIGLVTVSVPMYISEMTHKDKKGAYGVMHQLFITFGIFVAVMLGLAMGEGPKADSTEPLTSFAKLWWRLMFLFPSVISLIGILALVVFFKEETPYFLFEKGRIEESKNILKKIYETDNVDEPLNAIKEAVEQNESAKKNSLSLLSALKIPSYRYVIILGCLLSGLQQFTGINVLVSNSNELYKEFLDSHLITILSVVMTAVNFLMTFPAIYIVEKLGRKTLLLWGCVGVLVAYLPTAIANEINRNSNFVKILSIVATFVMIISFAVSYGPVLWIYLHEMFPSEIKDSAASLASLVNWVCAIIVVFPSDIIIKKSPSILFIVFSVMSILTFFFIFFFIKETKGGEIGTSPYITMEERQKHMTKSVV
Assay: 2-DG uptake by HEK293 cells overexpressing PfHT
Format: cell-based
Parameters: expressed in transfected cells; host or cells: HEK293 (HEK293-FLIP, native hGLUT1 knocked down by shRNA)
Conditions: IC50 for inhibition of 2-DG uptake, HEK293 cells overexpressing PfHT; mean/reported value
property-label: IC50

Illustrative cases are given below, each with its answer.
molecule	IC50
COc1cc(/C=N/NC(=O)c2cc(-c3ccccc3)sc2N)cc(OC)c1OC [WU-3]	9.2 µM
C=C1[C@@H](C)[C@H]2[C@H](Cc3ccccc3)NC(=O)[C@]23OC(=O)/C=C/[C@H](O)CCC[C@@H](C)C/C=C/[C@H]3[C@@H]1O [CB, cytochalasin B]	10.9 µM

Entry COc1cc(/C=C2\COC/C(=C\c3cc(OC)c(OC)c(OC)c3)C2=O)cc(OC)c1OC [WU-5] under PfHT (Plasmodium falciparum) had IC50 of 1.9 µM

---

The following molecules are shown together with reported remaining activity at 5 µM values.
Biological target: PfHT (Plasmodium falciparum)
Test: 2-DG uptake by HEK293 cells overexpressing PfHT
Assay type: cell-based
Set-up: expressed in transfected cells; host or cells: HEK293 (HEK293-FLIP, native hGLUT1 knocked down by shRNA)
Details: HEK293, 4 min, read-out: 2-DG uptake (percent uptake relative to vehicle), AVE, PfHT; 5 µM compound
Provide only the numeric value, understood in %.

molecule	study-target	remaining activity at 5 µM (%)
Cc1ccc(S(=O)(=O)CCNC(=O)c2c(-c3c(Cl)cccc3Cl)noc2C)cc1 [WU-1]	PfHT (Plasmodium falciparum)	53.2
COc1c(Br)cc([N+](=O)[O-])c(OC)c1C(=O)NC(=O)Nc1c(C)cccc1Cl [WU-2]	PfHT (Plasmodium falciparum)	50.6
COc1cc(/C=C2\COC/C(=C\c3cc(OC)c(OC)c(OC)c3)C2=O)cc(OC)c1OC [WU-5]	PfHT (Plasmodium falciparum)	48.9

Notebook: COc1cc(/C=N/NC(=O)c2cc(-c3ccccc3)sc2N)cc(OC)c1OC [WU-3] , remaining activity at 5 µM read as 87.6

---

Molecular target: UniProt:Q7KWJ5
Assay: 2-DG uptake by HEK293 cells overexpressing PfHT
Assay type: cell-based
Design: expressed in transfected cells; host or cells: HEK293 (HEK293-FLIP, native hGLUT1 knocked down by shRNA)
Conditions: HEK293, 4 min, read-out: 2-DG uptake (percent uptake relative to vehicle), AVE, PfHT; 0.3125 µM compound (0.313 in Fig 1 sheet for WU-1)
property-label: remaining activity at 0.3125 µM (%)
Just the number please, in %, no unit attached.

// known answers, use as guide
compound	study-target	remaining activity at 0.3125 µM (%)
COc1c(Br)cc([N+](=O)[O-])c(OC)c1C(=O)NC(=O)Nc1c(C)cccc1Cl [WU-2]	UniProt:Q7KWJ5	85
COc1cc(/C=N/NC(=O)c2cc(-c3ccccc3)sc2N)cc(OC)c1OC [WU-3]	UniProt:Q7KWJ5	109
COc1cc(/C=C2\COC/C(=C\c3cc(OC)c(OC)c(OC)c3)C2=O)cc(OC)c1OC [WU-5]	UniProt:Q7KWJ5	92.8

Entry Cc1ccc(S(=O)(=O)CCNC(=O)c2c(-c3c(Cl)cccc3Cl)noc2C)cc1 [WU-1] , remaining activity at 0.3125 µM reported as 90.2
